# assay.info: Enzymatic screening: simultaneous assay of the two methylation activities of PapM (ratio r)
# Assay type: biochemical, S. pristinaespiralis
# condition: 7 sequenced clones; experiment in which wild-type ratio was 0.40
observed.property: Ratio (r redetermined)
Answer with a bare number; do not write a unit.

Request: State its Ratio (r redetermined) for this molecule: Mutant 69: PapM variant Met226 > Ile (protein, UniProt P72542 1-292, looked up, variant M226I) 4-amino-L-phenylalanine/4-meth …: MTAAAPTLAQALDEATGQLTGAGITADAARADTRLLAAHACQVAPGDLDTCLAGPVPPRFWHYVRRRLTREPAERIVGHAYFMGHRFDLAPGVFVPKPETEEITRDAIARLEALVRRGTTAPLVVDLCAGPGTMAVTLARHVPAARVLGIELSQAAARAARRNARGTGARIVQGDARDAFPELSGTVDLVVTNPPYIPIGLRTSAPEVLEHDPPLALWAGEEGLGIIRAMERTAARLLAPGGVLLLEHGSYQLASVPALFRATGRWSHASSRPTCNDGCLTAVRNHTCAPPA
Response: 0.51
